FYI, the data here is from patent US20230286946A1.

- ASSAYED_SYSTEM: human GABAA α5β3γ2s receptor (Homo sapiens, UniProt P18507+P31644)
- Sequence (P18507 whole entry): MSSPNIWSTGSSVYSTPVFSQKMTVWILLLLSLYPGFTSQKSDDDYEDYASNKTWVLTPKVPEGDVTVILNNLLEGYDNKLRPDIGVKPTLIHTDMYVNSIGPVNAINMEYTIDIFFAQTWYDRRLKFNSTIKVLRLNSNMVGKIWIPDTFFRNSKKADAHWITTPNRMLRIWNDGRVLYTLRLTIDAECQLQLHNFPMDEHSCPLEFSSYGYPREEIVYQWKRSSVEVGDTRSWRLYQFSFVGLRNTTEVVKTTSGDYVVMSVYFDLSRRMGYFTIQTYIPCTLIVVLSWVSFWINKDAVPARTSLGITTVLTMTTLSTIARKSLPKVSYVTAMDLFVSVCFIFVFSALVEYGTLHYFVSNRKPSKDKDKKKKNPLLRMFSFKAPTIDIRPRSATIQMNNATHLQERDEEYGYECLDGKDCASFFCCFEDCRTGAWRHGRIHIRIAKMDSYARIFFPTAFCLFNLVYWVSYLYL
- Sequence (P31644 whole entry): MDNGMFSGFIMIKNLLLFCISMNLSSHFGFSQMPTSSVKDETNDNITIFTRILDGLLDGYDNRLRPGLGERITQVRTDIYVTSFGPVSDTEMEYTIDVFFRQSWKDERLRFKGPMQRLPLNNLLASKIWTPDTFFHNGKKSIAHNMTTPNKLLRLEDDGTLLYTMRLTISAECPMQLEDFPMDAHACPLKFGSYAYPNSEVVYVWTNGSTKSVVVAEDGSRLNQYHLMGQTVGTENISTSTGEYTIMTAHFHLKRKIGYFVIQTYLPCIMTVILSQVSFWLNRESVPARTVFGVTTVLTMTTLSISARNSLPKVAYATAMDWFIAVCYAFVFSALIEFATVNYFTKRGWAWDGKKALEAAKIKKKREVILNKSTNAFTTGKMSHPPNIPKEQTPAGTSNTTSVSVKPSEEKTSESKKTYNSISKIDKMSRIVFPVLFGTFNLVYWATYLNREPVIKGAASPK
- METHOD_NOTES: Assay A: in vitro inhibition of 3H-flumazenil binding, HEK cells expressing the human GABAA α5β3γ2s receptor
- CONDITION_CONTEXT: read-out: Assay A: GABAA α 5 β 3 γ 2s Ki
VALUE_KIND: Ki (nM)
Note: unit nM is implicit; provide only the numeric part.

What value of measured Ki is listed for `Cn1nnc(-c2ccc(C(F)F)cn2)c1COc1ccc(-c2cnccn2)nn1` ?
39

Quick one: `CCc1nccn1-c1ccc(OCc2c(-c3ccc(C(F)F)cn3)nnn2C)nn1`
150

Quick one: `Cc1n[nH]c(C)c1-c1ccc(OCc2c(C)nnn2-c2ccc(C(F)F)cn2)nn1`
40

Quick one: `CSc1ccc(-c2ccc(OCc3c(C)nnn3-c3ccc(C(F)F)cn3)nn2)cn1`
9

Quick one: `Cn1nnc(-c2ccc(C(F)F)cn2)c1COc1ccc(-c2cncc(C#N)c2)nn1`
12

Quick one: `Cc1nnn(-c2ccc(C(F)F)cn2)c1COc1ccc(-n2cncn2)nn1`
32

Quick one: `Cc1nnn(-c2ccc(C(F)F)cn2)c1COc1ccc(-n2cnc(C#N)c2)nn1`
14

Quick one: `Cc1nnn(-c2ccc(C(F)F)cn2)c1COc1ccc(-c2cn[nH]c2)nn1`
17

Quick one: `Cn1nnc(-c2ccc(C(F)F)cn2)c1COc1ccc(-c2cnn(C3CCC3)c2)nn1`
18

###

- ASSAYED_SYSTEM: human GABAA α5β3γ2s receptor (Homo sapiens, UniProt P18507+P31644)
- METHOD_NOTES: Assay A: in vitro inhibition of 3H-flumazenil binding, HEK cells expressing the human GABAA α5β3γ2s receptor
- CONDITION_CONTEXT: compounds of the present invention; read-out: Assay A: GABAA α5 β3 γ2S Ki
- Method: Cell Cultures and Membrane Preparation […] Non-specific binding is determined using clonazepam ([…]). […] The amount of radioactivity on the filters is determined by conventional liquid scintillation counting using a […] The IC50 value for a test compound is determined based on the equation: […] The Ki value for a test compound can be calculated from the IC50 value using the equation by Cheng and Prusoff: […]
VALUE_KIND: pKi
Quick note: pKi values are minus log10 of concentrations in mol/L.

What value of measured pKi is listed for `Cc1nnn(-c2ccc(C(F)F)cn2)c1COc1ccc(-n2cnc(C#N)c2)nn1` ?
10.85

Quick one: `Cc1nnn(-c2ccc(C(F)F)cn2)c1COc1ccc(-c2cc[nH]n2)nn1`
7.80

Quick one: `Cc1nnn(-c2ccc(C(F)F)cn2)c1COc1ccc(-c2cnccn2)nn1`
11.00

Quick one: `Cc1nnn(-c2ccc(C(F)F)cn2)c1COc1ccc(-n2cncn2)nn1`
10.49

###

- ASSAYED_SYSTEM: α5ß2 γ2 GABAA Receptor (Homo sapiens, UniProt P18507+P31644)
- Sequence (P31644 32-462): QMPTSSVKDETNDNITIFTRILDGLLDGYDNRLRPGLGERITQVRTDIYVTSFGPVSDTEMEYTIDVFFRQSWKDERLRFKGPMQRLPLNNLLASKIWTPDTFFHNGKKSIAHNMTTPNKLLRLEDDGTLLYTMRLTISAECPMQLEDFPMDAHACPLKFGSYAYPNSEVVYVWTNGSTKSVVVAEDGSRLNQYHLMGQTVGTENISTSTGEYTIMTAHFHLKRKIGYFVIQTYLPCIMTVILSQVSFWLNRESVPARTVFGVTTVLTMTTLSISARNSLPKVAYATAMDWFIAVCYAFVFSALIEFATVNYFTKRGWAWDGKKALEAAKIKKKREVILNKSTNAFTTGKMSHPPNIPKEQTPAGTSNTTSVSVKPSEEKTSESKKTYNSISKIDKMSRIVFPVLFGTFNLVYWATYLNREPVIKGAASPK
- Sequence (P18507 40-376 limits assumed): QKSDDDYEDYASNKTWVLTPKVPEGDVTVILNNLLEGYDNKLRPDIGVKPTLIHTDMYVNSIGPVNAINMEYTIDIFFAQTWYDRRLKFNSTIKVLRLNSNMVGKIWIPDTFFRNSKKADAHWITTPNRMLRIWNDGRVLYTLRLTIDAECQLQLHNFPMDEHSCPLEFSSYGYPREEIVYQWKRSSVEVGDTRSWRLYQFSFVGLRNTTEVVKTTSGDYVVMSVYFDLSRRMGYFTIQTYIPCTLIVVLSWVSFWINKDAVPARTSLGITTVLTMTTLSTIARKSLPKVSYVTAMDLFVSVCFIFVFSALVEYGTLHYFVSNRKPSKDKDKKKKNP
- METHOD_NOTES: Assay B: in vitro evaluation of modulation of α5ß2γ2 GABAA receptor, two-electrode voltage clamp in oocytes
- CONDITION_CONTEXT: co-application with 0.5 μM GABA, oocytes; read-out: Assay B: GABAA α 5 β 3 γ 2 EC50
VALUE_KIND: log10 EC50 (log10 of the value in nM)
Quick note: numbers are log10 of EC50, with nM as the unit.

What value of measured log10 EC50 is listed for `Cc1c(-c2ccc(OCc3c(-c4ccc(C(F)F)cn4)nnn3C)nn2)cc(C#N)n1C` ?
1.06

Quick one: `Cc1nnn(-c2ccc(C(F)F)cn2)c1COc1ccc(-c2cnn(CC#N)c2)nn1`
1.10

Quick one: `Cc1nccn1-c1ccc(OCc2c(-c3ccc(C(F)F)cn3)nnn2C)nn1`
1.19

Quick one: `COc1ncc(-c2ccc(OCc3c(-c4ccc(C(F)F)cn4)nnn3C)nn2)cn1`
1.30

Quick one: `Cc1nnn(-c2ccc(C(F)F)cn2)c1COc1ccc(-c2cccc(C#N)n2)nn1`
1.57

Quick one: `Cc1nnn(-c2ccc(C(F)F)cn2)c1COc1ccc(-c2ccc(C#N)s2)nn1`
2.17

Quick one: `Cn1nnc(-c2ccc(C(F)F)cn2)c1COc1ccc(-c2ccc(S(C)(=O)=O)nc2)nn1`
0.49

Quick one: `CCc1cn(-c2ccc(OCc3c(-c4ccc(C(F)F)cn4)nnn3C)nn2)nc1N`
1.51

Quick one: `CSc1ccc(-c2ccc(OCc3c(C)nnn3-c3ccc(C(F)F)cn3)nn2)cn1`
1.88

Quick one: `Cc1nnn(-c2ccc(C(F)F)cn2)c1COc1ccc(-n2cc(C#N)cn2)nn1`
1.57

Quick one: `Cc1nnn(-c2ccc(C(F)F)cn2)c1COc1ccc(-c2cncc(C#N)c2)nn1`
1.65

Quick one: `Cc1nnn(-c2ccc(C(F)F)cn2)c1COc1ccc(-c2cnc(N)nc2)nn1`
1.97

Quick one: `Cn1nnc(-c2ccc(C(F)F)cn2)c1COc1ccc(-n2cccn2)nn1`
1.08

Quick one: `Cc1n[nH]c(C)c1-c1ccc(OCc2c(C)nnn2-c2ccc(C(F)F)cn2)nn1`
1.54

Quick one: `Cn1nnc(-c2ccc(C(F)F)cn2)c1COc1ccc(-c2cccc(C(N)=O)c2)nn1`
1.16

Quick one: `CCn1cc(-c2ccc(OCc3c(-c4ccc(C(F)F)cn4)nnn3C)nn2)cn1`
1.43

Quick one: `Cn1nnc(-c2ccc(C(F)F)cn2)c1COc1ccc(-c2cnccn2)nn1`
2.55

Quick one: `Cc1nnn(-c2ccc(C(F)F)cn2)c1COc1ccc(-n2cncn2)nn1`
1.39

Quick one: `CCc1nccn1-c1ccc(OCc2c(-c3ccc(C(F)F)cn3)nnn2C)nn1`
1.36

Quick one: `CNc1cc(C)nn1-c1ccc(OCc2c(-c3ccc(C(F)F)cn3)nnn2C)nn1`
1.64

Quick one: `Cc1nnn(-c2ccc(C(F)F)cn2)c1COc1ccc(-c2cc[nH]n2)nn1`
1.06

Quick one: `Cc1ncc(-c2ccc(OCc3c(C)nnn3-c3ccc(C(F)F)cn3)nn2)o1`
1.37

Quick one: `Cc1nnn(-c2ccc(C(F)F)cn2)c1COc1ccc(-c2cccc(C(N)=O)c2)nn1`
1.14

Quick one: `Cc1ncnn1-c1ccc(OCc2c(-c3ccc(C(F)F)cn3)nnn2C)nn1`
1.90

Quick one: `Cc1nnn(-c2ccc(C(F)F)cn2)c1COc1ccc(-n2cc(F)cn2)nn1`
1.18

Quick one: `Cn1nnc(-c2ccc(C(F)F)cn2)c1COc1ccc(-c2cnc3nonc3c2)nn1`
1.80

Quick one: `Cn1nnc(-c2ccc(C(F)F)cn2)c1COc1ccc(-n2cc(Cl)cn2)nn1`
1.46

Quick one: `Cn1nnc(-c2ccc(C(F)F)cn2)c1COc1ccc(-n2ccc(C#N)n2)nn1`
0.59

Quick one: `Cn1nnc(-c2ccc(C(F)F)cn2)c1COc1ccc(-n2cnc(C#N)c2)nn1`
0.30

Quick one: `Cc1nnn(-c2ccc(C(F)F)cn2)c1COc1ccc(-c2cnccn2)nn1`
1.16

Quick one: `Cc1c(-c2ccc(OCc3c(-c4ccc(C(F)F)cn4)nnn3C)nn2)cnn1C`
1.47

Quick one: `Cc1cc(-c2ccc(OCc3c(C)nnn3-c3ccc(C(F)F)cn3)nn2)cnn1`
0.82

Quick one: `Cc1nnn(-c2ccc(C(F)F)cn2)c1COc1ccc(-c2ccc(N)nc2)nn1`
1.81

Quick one: `Cn1nnc(-c2ccc(C(F)F)cn2)c1COc1ccc(-c2cn[nH]c2)nn1`
0.99

Quick one: `Cc1nn(C)cc1-c1ccc(OCc2c(-c3ccc(C(F)F)cn3)nnn2C)nn1`
0.66

Quick one: `CNc1cccc(-c2ccc(OCc3c(C)nnn3-c3ccc(C(F)F)cn3)nn2)n1`
1.95
